- EXPERIMENTAL TARGET: rat GPR14 (U-II receptor) (Rattus norvegicus)
- Sequence (P49684 1-386): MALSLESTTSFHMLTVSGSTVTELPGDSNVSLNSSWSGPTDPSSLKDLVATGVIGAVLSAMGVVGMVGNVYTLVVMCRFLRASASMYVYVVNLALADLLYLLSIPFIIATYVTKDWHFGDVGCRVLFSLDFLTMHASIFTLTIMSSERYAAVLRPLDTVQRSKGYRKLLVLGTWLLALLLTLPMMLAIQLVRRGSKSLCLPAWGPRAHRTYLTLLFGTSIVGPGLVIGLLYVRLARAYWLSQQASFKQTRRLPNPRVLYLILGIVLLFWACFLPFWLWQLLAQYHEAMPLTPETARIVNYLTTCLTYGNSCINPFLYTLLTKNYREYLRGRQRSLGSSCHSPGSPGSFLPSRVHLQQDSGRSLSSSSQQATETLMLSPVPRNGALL
- MEASUREMENT DESCRIPTION: Rat UII Calcium Mobilization FLIPR Assay
- CONDITION INFO: CHO cells transfected with rat GPR14; antagonist activity after 5 min incubation vs agonist (Ac)-CFWK(2-NaI)C-NH2 at 1 nM
pIC50: −log10 of the molar value.
# binarize pIC50: threshold 8 inclusive, high side met, low side not met

For orientation, consider the following solved cases.
[[record]]
compound = "CCN1CCN(c2cccc3c2CN(C(CC2CCN(S(=O)(=O)O)CC2)c2ccc(OC)c(OC)c2)C3=O)CC1 (stereo not shown)"
group_label = "not met"

[[record]]
compound = "CCN1CCN(c2cccc3c2CN([C@H](CCCNC(=O)c2cncn2C)c2ccc(OC)c(OC)c2)C3=O)CC1"
group_label = "not met"

[[record]]
compound = "CCN1CCN(c2cccc3c2CN([C@H](CCCNC(=O)c2ccnnc2)c2ccc(OC)c(OC)c2)C3=O)CC1"
group_label = "not met"

[[record]]
compound = "COc1ccc([C@@H](CCCSc2nnnn2C)N2Cc3c(cccc3N3CCNCC3)C2=O)cc1OC"
group_label = "not met"

[[record]]
compound = "CCN(CC)CCC[C@H](c1ccc(OC)c(OC)c1)N1Cc2c(cccc2N2CCN(CC)CC2)C1=O"
group_label = "not met"

[[record]]
compound = "CCN1CCN(c2cccc3c2CN([C@H](CCCNc2nccc(C(F)(F)F)n2)c2ccc(OC)c(OC)c2)C3=O)CC1"
group_label = "met"

[[record]]
compound = "CCN1CCN(c2cccc3c2CN([C@H](CCCn2cncn2)c2ccc(OC)c(OC)c2)C3=O)CC1"
group_label = "not met"

[[record]]
compound = "CCN1CCN(c2cccc3c2CN([C@H](CCCNS(=O)(=O)c2cccs2)c2ccc(OC)c(OC)c2)C3=O)CC1"
group_label = "met"


Dear colleague, could you confirm whether CCN1CCN(c2cccc3c2CN(C(CC2CCN(Cc4ccccc4)CC2)c2ccc(OC)c(OC)c2)C3=O)CC1 (stereo not shown) has pIC50 at or above 8?
not met

* * *

- EXPERIMENTAL TARGET: rat GPR14 (U-II receptor) (Rattus norvegicus, UniProt P49684)
- Sequence (P49684 1-386): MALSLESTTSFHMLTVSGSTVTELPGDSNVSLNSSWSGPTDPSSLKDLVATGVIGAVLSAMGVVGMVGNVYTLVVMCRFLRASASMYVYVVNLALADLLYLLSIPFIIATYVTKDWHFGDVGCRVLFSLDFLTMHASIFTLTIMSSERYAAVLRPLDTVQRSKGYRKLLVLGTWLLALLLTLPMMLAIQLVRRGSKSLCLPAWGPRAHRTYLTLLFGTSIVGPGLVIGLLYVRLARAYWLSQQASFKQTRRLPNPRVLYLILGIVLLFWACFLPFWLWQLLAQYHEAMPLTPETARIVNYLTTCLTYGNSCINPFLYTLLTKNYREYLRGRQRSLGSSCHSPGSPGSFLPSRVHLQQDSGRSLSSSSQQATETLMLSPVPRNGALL
- MEASUREMENT DESCRIPTION: Rat UII Calcium Mobilization FLIPR Assay
- CONDITION INFO: CHO cells transfected with rat GPR14; antagonist activity after 5 min incubation vs agonist (Ac)-CFWK(2-NaI)C-NH2 at 1 nM
ENDPOINT LABEL: IC50 (nM)
Just the number in nM, nothing appended.

# count of solved cases: 3
[[record]]
compound = "CCN1CCN(c2cccc3c2CN([C@H](CCCNC(=O)c2cccs2)c2ccc(OC)c(OC)c2)C3=O)CC1 [Cpd 81]"
unit_text = "nM"
value_reported = 7

[[record]]
compound = "COc1ccc([C@@H](CCCOc2ccccc2)N2Cc3c(cccc3N3CCNCC3)C2=O)cc1OC [Cpd 37]"
unit_text = "nM"
value_reported = 14

[[record]]
compound = "CCN1CCN(c2cccc3c2CN(C(CC2CCN(S(=O)(=O)c4cccs4)CC2)c2ccc(OC)c(OC)c2)C3=O)CC1 (stereo not shown) [Cpd 18]"
unit_text = "nM"
value_reported = 9


Then this compound:
Return IC50 measured with rat GPR14 (U-II receptor) (Rattus norvegicus, UniProt P49684) given this compound: CCN1CCN(c2cccc3c2CN([C@H](CCCN(Cc2ccccc2)C(C)C)c2ccc(OC)c(OC)c2)C3=O)CC1 [Cpd 96]
15
